Origin of measurements: ChEMBL document CHEMBL1132457

TGT: Adenosine receptor A3 (Rattus norvegicus)
Format: cell-based
CONDITION NOTES: CHO, 10 mM
Recorded inhibition by entry
Please respond with the number in % and leave the unit unwritten.

Worked examples, 6 compounds total:
* CCn1cc2c(nc(NC(=O)Nc3cccc(Cl)c3)n3nc(-c4ccco4)nc23)n1 | 36
* CCCn1cc2c(nc(NC(=O)Nc3ccc(OC)cc3)n3nc(-c4ccco4)nc23)n1 | 37
* CCn1cc2c(nc(NC(=O)Nc3ccc(OC)cc3)n3nc(-c4ccco4)nc23)n1 | 39
* O=C(Nc1cccc(Cl)c1)Nc1nc2nn(CCCc3ccccc3)cc2c2nc(-c3ccco3)nn12 | 20
* O=C(Nc1cccc(Cl)c1)Nc1nc2nn(CCc3ccccc3)cc2c2nc(-c3ccco3)nn12 | 30
* CCn1cc2c(nc(N)n3nc(-c4ccco4)nc23)n1 | 1

// inhibition lookup, key: COc1ccc(NC(=O)Nc2nc3nn(CCc4ccccc4)cc3c3nc(-c4ccco4)nn23)cc1 37

----------
Ratio: recorded values
System: HEK293
PROTOCOL: Ratio of binding affinity for rat adenosine A1 and human adenosine A3 receptors expressed in HEK293 cells
Format: cell-based
Enter the number alone.

• COc1ccc(NC(=O)Nc2nc3nn(CCCc4ccccc4)cc3c3nc(-c4ccco4)nn23)cc1 = 76.4
• COc1ccc(NC(=O)Nc2nc3nn(CCc4ccccc4)cc3c3nc(-c4ccco4)nn23)cc1 = 872
• Nc1nc2nn(CCCc3ccccc3)cc2c2nc(-c3ccco3)nn12 = 0.004

Lab request: please report Ratio under test system HEK293 for CCn1cc2c(nc(N)n3nc(-c4ccco4)nc23)n1 0.03

Report Ratio for CCCn1cc2c(nc(N)n3nc(-c4ccco4)nc23)n1 tested on HEK293. 0.22

// fetch HEK293 Ratio for O=C(Nc1cccc(Cl)c1)Nc1nc2nn(CCc3ccccc3)cc2c2nc(-c3ccco3)nn12 79

----------
TGT: UniProtKB P29274
Sequence (P29274 whole entry): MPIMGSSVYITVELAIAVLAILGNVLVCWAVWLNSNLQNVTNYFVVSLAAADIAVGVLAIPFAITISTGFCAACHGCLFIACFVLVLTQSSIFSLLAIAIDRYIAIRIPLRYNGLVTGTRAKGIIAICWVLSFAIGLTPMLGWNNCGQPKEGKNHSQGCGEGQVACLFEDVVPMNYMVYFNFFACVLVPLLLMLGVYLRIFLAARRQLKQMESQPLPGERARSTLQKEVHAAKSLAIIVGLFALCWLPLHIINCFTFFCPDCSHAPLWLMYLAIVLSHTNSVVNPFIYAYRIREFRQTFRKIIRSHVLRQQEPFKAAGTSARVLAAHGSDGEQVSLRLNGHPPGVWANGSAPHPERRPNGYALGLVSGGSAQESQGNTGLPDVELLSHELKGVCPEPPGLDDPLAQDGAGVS
PROTOCOL: Displacement of specific [3H]-SCH- 58261 binding at human Adenosine A2A receptor expressed in HEK293 cells
Type: cell-based
REPORTED METRIC: Ki (nM)
Form entry: value (nM) — number only.

As a guide, the following entries are already answered.
• O=C(Nc1cccc(Cl)c1)Nc1nc2nn(CCCc3ccccc3)cc2c2nc(-c3ccco3)nn12 = 202
• COc1ccc(NC(=O)Nc2nc3nn(CCc4ccccc4)cc3c3nc(-c4ccco4)nn23)cc1 = 124
• CCn1cc2c(nc(NC(=O)Nc3cccc(Cl)c3)n3nc(-c4ccco4)nc23)n1 = 185

Here's the next entry for you.
# get_value(readout='Ki', item= COc1ccc(NC(=O)Nc2nc3nn(CCCc4ccccc4)cc3c3nc(-c4ccco4)nn23)cc1 ) 1020

----------
# inhibition per record follows
TGT: Adenosine receptor A3 (Rattus norvegicus) (UniProt P28647)
Sequence (P28647 whole entry): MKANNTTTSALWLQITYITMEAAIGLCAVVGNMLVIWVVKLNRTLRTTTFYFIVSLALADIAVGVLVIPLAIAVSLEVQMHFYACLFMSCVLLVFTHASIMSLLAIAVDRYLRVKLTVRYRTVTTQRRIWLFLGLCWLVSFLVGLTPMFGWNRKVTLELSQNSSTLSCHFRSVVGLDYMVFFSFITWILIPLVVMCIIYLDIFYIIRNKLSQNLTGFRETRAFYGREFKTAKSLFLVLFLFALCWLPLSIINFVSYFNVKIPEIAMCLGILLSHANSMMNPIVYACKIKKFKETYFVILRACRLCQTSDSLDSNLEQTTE
Assay type: cell-based
CONDITION NOTES: CHO, 10 mM
Enter your answer as a number in %; do not include the unit.

Field: example entries. Status: answers known.
* CCCn1cc2c(nc(NC(=O)Nc3cccc(Cl)c3)n3nc(-c4ccco4)nc23)n1 | 20
* COc1ccc(NC(=O)Nc2nc3nn(CCCc4ccccc4)cc3c3nc(-c4ccco4)nn23)cc1 | 11

Now examine the next entry.
// lookup inhibition | system=Adenosine receptor A3 (Rattus norvegicus) (UniProt P28647) | key= Nc1nc2nn(CCCc3ccccc3)cc2c2nc(-c3ccco3)nn12 32
